test system: MRG701 chromodomain (MRG701^CD, residues 27-96) (Oryza sativa)
assay text: ITC; MicroCal iTC200, 20°C, 20 mmol/L Tris pH 8.0, 100 mmol/L NaCl; protein 0.1-0.2 mmol/L in the cell, peptide 1-2 mmol/L in the syringe; one-site model
pKd: −log10 of the molar value. Primed or numbered codes have the meaning given here. No end group written: not given here. Me3″ = trimethyl (trimethyl-lysine)

{"binder": "ARTK(Me3″)QTARK (peptide, UniProt P68431 2-10, looked up, histone H3, residues 1-9, trimethylated at lysine 4) [histone H3K4me3 peptide (residues 1-9)]", "pKd": 3.48}

All figures here come from paper PMC5084153.
